assay: folding stability dG unfold from chymotrypsin proteolysis; higher = more stable
folding stability dG unfold reference
measurementKind: folding stability dG unfold (kcal/mol)

chain	measurementKind	resultNumber
SAKNIAIKVSIWPFDPEDGEPQTFEITYPFPDPEDAIDEIEEFLPPGYRVKIEVFDPDGKPLKEIEIRISAG [r14_234_TrROS]	folding stability dG unfold	2.28
SAGGSAGGSPYTIMYPIPGDTVEEVKDIAKEIMEHFPNFKITVSVEPPKDGQYWVTIELEMPDSAGGSAGGS [r12_425_TrROS]	folding stability dG unfold	2.23
SAGGSGSQEVDIDFKFPPNFNMDELAKKIEELPGIDIKPDRYDPENGTYKITINVNDPQAVREIIRSAGGSA [r2_305_TrROS]	folding stability dG unfold	-0.497
SAGGSAGGSAGMDIDILTETEVTRYPDGTVVTTTTTRDSSGEVLSTTTTTTTVTPATPAASAGGSAGGSAGG [r11_452_JUSTAS]	folding stability dG unfold	2.6
SAGMAEEAREAARLFASELAPRFGVEAEIPEVRVEFDPETGEVHVHLEVLFRLPEPRTVRRDFVLVLPLSAG [r5_381_TrMRF]	folding stability dG unfold	1.92
SAGGSAGGSAKIFARAPPGQWYRITVKYKGGNGDKKEHTATIPPNNPPPDIEDVEIEPIPPGSAGGSAGGSA [r18_223_TrROS]	folding stability dG unfold	3.15
SAGGSAGGSAGHMVKVKITKSKGGSSLPLEEKEIELDIDEEKLEELKEEAKKKGYTVEIESAGGSAGGSAGG [r17_18_JUSTAS]	folding stability dG unfold	0.0362
SAGGSAGGELEELPGLKVVAVFELPGNRRLVLFEAEGGRYLLLVEGEGTRLVPVPEDVSLEELASAGGSAGG [r6_680_TrMRF]	folding stability dG unfold	3.39
SAGGSAGGMTARKTYEVEVPADDPDALADLAFDLPAGDTVYFRTPGPDLRAVVTDDVPVVEPAGSAGGSAGG [r6_550_TrMRF]	folding stability dG unfold	0.0243
SMVELKITVKTPEELKKLEEAFKELGVEEVTIERKEDGTVTITVTFKESEEELEERVREALEELGFEVEPSA [r9_1003_TrROS_Hall]	folding stability dG unfold	2.82
SALWVIKDTIKPPNGKKRKISIAIPNDGLYVWFNGGSFPIPLKEIKKIMENFPGYQIDDIEIMPLDELKSAG [r14_336_TrROS]	folding stability dG unfold	-0.15
SAGGSAGGSAGGKKIRIVVPKENLEKIEELAKKLGPDVKIVKVEYFKETDYVVVEVEVKSAGGSAGGSAGGS [r10_23_TrROS_Hall]	folding stability dG unfold	1.98
SGISNEEIKKILEEIAKEYPGLKIEIKPGTEPSVAKGPKAVVTLTRKPGYLEITITFPETGETTTIPIPPSA [r9_1062_JUSTAS]	folding stability dG unfold	2.72
SAGGSAGGSAGMLTTKTITLPHAPDDPAAFRAAVLKGLPPELPVLSVDYDPATGTGTVVASAGGSAGGSAGG [r11_698_JUSTAS]	folding stability dG unfold	0.0666

Cited source for all entries: the supplement of paper PMC12764529
